Task for the reader: assign each of the following compounds its reported inhibition at 2 µM.
# PROCEDURE DETAILS: HepG2 cytotoxicity screening (CellTiter-Glo)
# CONDITION PARAMETERS: human, uninfected HepG2-A16-CD81 (EGFP) hepatocytes
// return numeric value only (unit: %, not printed)

(Q) Find the recorded inhibition at 2 µM belonging to OC(c1ccccn1)C1CCN(Cc2cc3n(n2)CCNC3)CC1 (centres unmarked) and report it.
(A) -15.7

(Q) Find the recorded inhibition at 2 µM belonging to "CCc1c(C(=O)N2CCN(C)[C@@H]3CS(=O)(=O)C[C@@H]32)[nH]c2ccccc12" and report it.
(A) -0.18

(Q) Find the recorded inhibition at 2 µM belonging to NC(=O)C1CN(C(=O)Nc2cc(Cl)cc(Cl)c2)CCO1 (centres unmarked) and report it.
(A) 11.4

(Q) Find the recorded inhibition at 2 µM belonging to CCN1CC(CN(C)c2cc(C)nc(N)n2)Oc2ccccc21 (centres unmarked) and report it.
(A) -3.08

(Q) Find the recorded inhibition at 2 µM belonging to CCc1cnc(N)nc1NC(C)c1ccc(C)c(C)c1 (centres unmarked) and report it.
(A) 3.76

(Q) Find the recorded inhibition at 2 µM belonging to CC(=O)N1CCN(Cc2cccc3c2sc2ccccc23)CC(O)C1 (centres unmarked) and report it.
(A) 6.03

(Q) Find the recorded inhibition at 2 µM belonging to "CC(C)Cc1ccc(S(=O)(=O)Nc2ccc(=O)n(C)c2)cc1" and report it.
(A) 3.02

(Q) Find the recorded inhibition at 2 µM belonging to "CCc1nc(CN2CCN(c3ncnc4cc(F)ccc34)CC2)no1" and report it.
(A) 13.2

(Q) Find the recorded inhibition at 2 µM belonging to "CC(C)CC(=O)NCc1cccc(OCCN(C)C2CCOCC2)c1" and report it.
(A) 38.8

(Q) Find the recorded inhibition at 2 µM belonging to COc1ccc2cc(C3CN(C(=O)N(C)C)CCO3)ccc2c1 (centres unmarked) and report it.
(A) -0.4

(Q) Find the recorded inhibition at 2 µM belonging to "Clc1cnccc1NCc1cccc(COC2CCOCC2)c1" and report it.
(A) 43.7

(Q) Find the recorded inhibition at 2 µM belonging to "Cc1cccc(NC(=O)c2[nH]nc(C(C)C)c2Br)n1" and report it.
(A) 17.4

(Q) Find the recorded inhibition at 2 µM belonging to CN1CCC(N(C)CCC(=O)N2CCC(CCc3ccccc3)CC2)C1 (centres unmarked) and report it.
(A) 18.9

(Q) Find the recorded inhibition at 2 µM belonging to "Cc1nc(NC(=O)c2c(-n3cnnn3)sc(C)c2C)sc1C" and report it.
(A) 4.63

(Q) Find the recorded inhibition at 2 µM belonging to "COc1cccc(CN2CCC(CO)(Cc3ccc(Cl)cc3)CC2)c1O" and report it.
(A) 2.59

(Q) Find the recorded inhibition at 2 µM belonging to "CCOC(=O)N1CCN(c2nc(CCN)nc3sc(C)c(C)c23)CC1" and report it.
(A) -5.69

(Q) Find the recorded inhibition at 2 µM belonging to "COCCCC(=O)Nc1cc(Cl)c(Cl)cn1" and report it.
(A) 59.5

(Q) Find the recorded inhibition at 2 µM belonging to "O=C1NCCN1C1CCN(Cc2nc(-c3ccccc3)no2)CC1" and report it.
(A) -6.19

(Q) Find the recorded inhibition at 2 µM belonging to CCn1ccnc1CNCC(c1ccc(C)s1)N1CCOCC1 (centres unmarked) and report it.
(A) 16.3

(Q) Find the recorded inhibition at 2 µM belonging to CN(Cc1ccncc1)C1COC2(CCN(Cc3nccn3C)CC2)C1 (centres unmarked) and report it.
(A) 2.08
